Where do these numbers come from? They come from patent US20260232825A1.

# testDetails: Size exclusion chromatography (SEC) analysis of the antibody-drug conjugates
# Format: physicochemical
# measurementSetup: SEC purity of the antibody-drug conjugate
Numbered stars: 1 amine (or outer) side, 2 acyl side, 3 side chain; on linkers, the order of the positions; unused ones are H or OH. Square brackets hold non-standard residues; d marks the D form. Peptide text beside a SMILES is read from it. * marks the point of attachment. Dolaproine = CO[C@@H]([C@@H]1CCCN1)[C@@H](C)C(=O)O; Hexanoyl(6-maleimido) = O=C1C=CC(=O)N1CCCCCC(=O)*; Dil = CC[C@H](C)[C@H](NC)[C@@H](CC(=O)O)OC; PABC = O=C(OCc1ccc(N[*:1])cc1)[*:2]; X1 = C[N+](C)(CCCS(=O)(=O)[O-])CCN*; X2 = C[C@@H](N*)[C@@H](O)c1ccccc1; NMeV = CN[C@H](C(=O)O)C(C)C

{"compound": "CC[C@H](C)[C@@H]([C@@H](CC(=O)N1CCC[C@H]1[C@H](OC)[C@@H](C)C(=O)N[C@H](C)[C@@H](O)c1ccccc1)OC)N(C)C(=O)[C@@H](NC(=O)[C@H](C(C)C)N(C)C(=O)OCc1ccc(NC(=O)[C@H](CCC(=O)NCC[N+](C)(C)CCCS(=O)(=O)[O-])NC(=O)[C@@H](NC(=O)CCCCCN2C(=O)C=CC2=O)C(C)C)cc1)C(C)C [LD-57] ({Hexanoyl(6-maleimido)}-VE(X1)[PABC][NMeV]V[Dil][Dolaproine]-X2)", "unitLabel": "%", "SEC %": 99.34}
{"compound": "CC[C@@]1(O)C(=O)OCc2c1cc1n(c2=O)Cc2c-1nc1cc(F)c(C)c3c1c2[C@@H](NC(=O)OCc1ccc(NC(=O)CNC(=O)[C@H](Cc2ccccc2)NC(=O)CNC(=O)CNC(=O)CCCCCN2C(=O)C=CC2=O)cc1CN(C)C(=O)COP(=O)([O-])OCC[N+](C)(C)C)CC3", "unitLabel": "%", "SEC %": 98.90}
{"compound": "CC[C@@]1(O)C(=O)OCc2c1cc1n(c2=O)Cc2c-1nc1cc(F)c(C)c3c1c2[C@@H](NC(=O)OCc1ccc(NC(=O)[C@H](C)NC(=O)[C@@H](NC(=O)[C@H](CCC(=O)NCC[N+](C)(C)CCCS(=O)(=O)[O-])NC(=O)CCOCCOCCOCCOCCNC(=O)CCN2C(=O)C=CC2=O)C(C)C)cc1)CC3", "unitLabel": "%", "SEC %": 97.50}
{"compound": "CC[C@@]1(O)C(=O)OCc2c1cc1n(c2=O)Cc2c-1nc1cc(F)c(C)c3c1c2[C@@H](NC(=O)OCc1ccc(NC(=O)[C@H](C)NC(=O)[C@@H](NC(=O)CCOCCOCCOCCOCCNC(=O)CCN2C(=O)C=CC2=O)C(C)C)cc1CN(C)C(=O)CCC[N+](C)(C)CCCS(=O)(=O)[O-])CC3", "unitLabel": "%", "SEC %": 99.28}
{"compound": "CC[C@@]1(O)C(=O)OCc2c1cc1n(c2=O)Cc2c-1nc1cc(F)c(C)c3c1c2[C@@H](NC(=O)OCc1ccc(NC(=O)[C@H](C)NC(=O)[C@@H](NC(=O)CCCCCN(C)CCN2C(=O)C=CC2=O)C(C)C)cc1CN(C)C(=O)CCC[N+](C)(C)CCCS(=O)(=O)[O-])CC3", "unitLabel": "%", "SEC %": 98.79}
{"compound": "CC[C@@]1(O)C(=O)OCc2c1cc1n(c2=O)Cc2c-1nc1cc(F)c(C)c3c1c2[C@@H](NC(=O)OCc1ccc(NC(=O)[C@H](C)NC(=O)[C@@H](NC(=O)CCCCCN2C(=O)C=CC2=O)C(C)C)cc1CN(C)C(=O)CN(C)C(=O)CN(C)C(=O)CN(C)C(=O)CN(C)C(=O)CN(C)C(=O)CN(C)C(=O)CN(C)C(=O)CN(C)C(=O)CN(C)C(=O)CN(C)C(C)=O)CC3 [LD-74, reference compound]", "unitLabel": "%", "SEC %": 99.53}
{"compound": "CC[C@@]1(O)C(=O)OCc2c1cc1n(c2=O)Cc2c-1nc1cc(F)c(C)c3c1c2[C@@H](NC(=O)OCc1ccc(NC(=O)[C@H](C)NC(=O)[C@@H](NC(=O)CCOCCOCCOCCOCCNC(=O)CCN2C(=O)C=CC2=O)C(C)C)cc1CN(C)C(=O)CCOCCOCCOCCOCCOCCOCCOCCOCCOC)CC3", "unitLabel": "%", "SEC %": 99.53}
{"compound": "CC[C@@]1(O)C(=O)OCc2c1cc1n(c2=O)Cc2c-1nc1cc(F)c(C)c3c1c2[C@@H](NC(=O)OCc1ccc(NC(=O)[C@H](CCC(=O)N(CCCS(=O)(=O)[O-])CC[N+](C)(C)C)NC(=O)[C@@H](NC(=O)CCOCCOCCOCCOCCNC(=O)CCN2C(=O)C=CC2=O)C(C)C)cc1)CC3", "unitLabel": "%", "SEC %": 98.00}
